In this section we review reported protein stability index values for a set of variants.
B1: IQUB (parent)
chain: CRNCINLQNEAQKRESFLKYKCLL

variants of: B1; experiment: protein stability index of a GFP-peptide fusion (GPS, HEK-293T) (PSI 1-6); higher = more stable; conditions: c terminus: a fixed tail appended;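 note: lentivirally expressed fusions sorted by FACS into six bins by GFP to DsRed ratio, PSI derived from sequencing read proportions per bin multiplied by bin number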
Lab note: jot down the number only; don't add units.

{"columns": ["MUTATIONS", "protein stability index"],
 "data": [
  ["A11E", 2.19],
  ["N9H", 1.53],
  ["F17M", 1.58],
  ["L23C", 2.98],
  ["S16R", 2.62]
]}

stdin: protein stability index lookup needed for L7D , thanks.
stdout: 2.31

stdin: Then L18T ?
stdout: 1.88

stdin: Then N6F ?
stdout: 2.2

stdin: Then K21F ?
stdout: 1.74

stdin: Then E15C ?
stdout: 1.47

stdin: Then Y20T ?
stdout: 2.14
